assay-procedure: Slow binding inhibition of fructose-bisphosphate aldolase (unknown origin) assessed as overall inhibition constant using FBP as substrate and NADH by UV-Vis spectrophotometry dependent TIM/GDH coupled assay based Dixon plot analysis
Set-up: species or system Homo sapiens
parameter: pKi
To interpret pKi, take it as minus log10 of a concentration measured in moles per litre.

Incoming: State the recorded pKi for this entry: `O=P([O-])([O-])Oc1ccc2cc(C(P(=O)([O-])[O-])P(=O)([O-])[O-])ccc2c1.[Li+].[Li+].[Li+].[Li+].[Li+].[Li+]`
Outgoing: 7.42

* * *

assay-procedure: Slow binding inhibition of fructose-bisphosphate aldolase (unknown origin) assessed as dibasic species population adjusted overall inhibition constant using FBP as substrate and NADH by UV-Vis spectrophotometry dependent TIM/GDH coupled assay based Dixon plot analysis
Parameters: species or system Homo sapiens
assay-setup: read-out: Ki(app)
parameter: Ki (nM)
Respond numerically; units are nM and should not be typed.

Incoming: Look at this compound and give its reported Ki. `O=P([O-])([O-])Oc1ccc2cc(C(P(=O)([O-])[O-])P(=O)([O-])[O-])ccc2c1.[Li+].[Li+].[Li+].[Li+].[Li+].[Li+]`
Outgoing: 7.6
